- Test system: NFF
- Test Method Notes: Cytotoxicity against human NFF cells assessed as increase in intracellular caspase 3/7 release incubated for 72 hrs by Caspase-Glo 3/7 assay
Measurement Type: EC50 (µM)

[[record]]
molecule = "CC(C)C(C(=O)Nc1ccc(C(=O)NO)cc1)c1ccccc1 (racemic)"
tgt = "NFF"
reported = 24.3

[[record]]
molecule = "O=C(NO)c1ccc(NC(=O)C2(c3ccc4ccccc4c3)CCOCC2)cc1"
tgt = "NFF"
reported = 4.3


* * *

Listing: IC50 of selected molecules
- Tgt: Histone deacetylase 1 (Homo sapiens)
- Sequence (Q13547 whole entry): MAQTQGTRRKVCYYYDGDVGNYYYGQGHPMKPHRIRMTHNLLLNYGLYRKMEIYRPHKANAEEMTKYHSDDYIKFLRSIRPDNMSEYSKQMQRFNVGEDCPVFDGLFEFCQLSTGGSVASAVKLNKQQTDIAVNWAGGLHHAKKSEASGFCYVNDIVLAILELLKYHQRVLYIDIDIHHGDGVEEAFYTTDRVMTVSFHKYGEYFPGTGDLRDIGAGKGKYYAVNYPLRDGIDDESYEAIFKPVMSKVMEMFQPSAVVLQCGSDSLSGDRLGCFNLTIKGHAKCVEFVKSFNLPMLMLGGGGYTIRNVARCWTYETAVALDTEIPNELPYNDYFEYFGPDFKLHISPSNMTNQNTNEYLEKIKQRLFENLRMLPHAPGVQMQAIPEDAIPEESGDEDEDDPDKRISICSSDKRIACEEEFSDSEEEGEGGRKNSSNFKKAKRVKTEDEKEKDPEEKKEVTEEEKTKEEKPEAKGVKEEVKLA
- Test Method Notes: Inhibition of human recombinant HDAC1 pre-incubated for 30 mins before Ac-Leu- Gly-Lys(Ac)-AMC substrate addition and measured after 90 mins by fluorescence based assay
Measurement Type: IC50

[[record]]
smiles_data = "O=C(NO)c1ccc(NC(=O)C2(c3ccc(-c4cccnc4)cc3)CCCC2)cc1"
tgt = "Histone deacetylase 1 (Homo sapiens)"
reported = "5 nM"

[[record]]
smiles_data = "Nc1cccc(-c2ccc(C3(C(=O)Nc4ccc(C(=O)NO)cc4)CCCC3)cc2)c1"
tgt = "Histone deacetylase 1 (Homo sapiens)"
reported = "4 nM"

[[record]]
smiles_data = "O=C(NO)c1ccc(NC(=O)C2(c3ccc(-c4cn[nH]c4)cc3)CCCCC2)cc1"
tgt = "Histone deacetylase 1 (Homo sapiens)"
reported = "2 nM"

[[record]]
smiles_data = "CN(C)c1ccc(C2(C(=O)Nc3ccc(C(=O)NO)cc3)CCCC2)cc1"
tgt = "Histone deacetylase 1 (Homo sapiens)"
reported = "4 nM"

[[record]]
smiles_data = "O=C(NO)c1ccc(NC(=O)C2(c3ccc(-c4ccccc4)c(F)c3)CCCC2)cc1"
tgt = "Histone deacetylase 1 (Homo sapiens)"
reported = "42 nM"


* * *

- Tgt: Histone deacetylase 2 (Homo sapiens)
- Sequence (Q92769 whole entry): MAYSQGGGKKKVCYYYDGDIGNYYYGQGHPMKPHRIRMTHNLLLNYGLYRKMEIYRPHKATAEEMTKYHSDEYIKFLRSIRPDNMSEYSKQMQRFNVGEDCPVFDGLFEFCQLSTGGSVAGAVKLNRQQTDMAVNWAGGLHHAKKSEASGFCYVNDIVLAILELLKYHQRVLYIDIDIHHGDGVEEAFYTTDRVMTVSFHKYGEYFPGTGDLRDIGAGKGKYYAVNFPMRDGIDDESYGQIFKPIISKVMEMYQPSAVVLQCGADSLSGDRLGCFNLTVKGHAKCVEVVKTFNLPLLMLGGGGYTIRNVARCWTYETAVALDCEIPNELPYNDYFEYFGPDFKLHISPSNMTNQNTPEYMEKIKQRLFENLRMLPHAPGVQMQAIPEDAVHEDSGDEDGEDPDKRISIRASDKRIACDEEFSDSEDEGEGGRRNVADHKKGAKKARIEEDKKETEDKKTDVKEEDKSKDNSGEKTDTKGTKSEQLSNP
- Test Method Notes: Inhibition of human recombinant HDAC2 pre-incubated for 30 mins before Ac-Leu- Gly-Lys(Ac)-AMC substrate addition and measured after 90 mins by fluorescence based assay
pIC50: −log10 of the molar value.
Measurement Type: pIC50

[[record]]
smiles_data = "O=C(NO)c1ccc(NC(=O)C2(c3ccc(Br)cc3)CCOCC2)cc1"
reported = 7.77

[[record]]
smiles_data = "O=C(NO)c1ccc(NC(=O)C2(c3ccc(-c4cn[nH]c4)cc3)CCCCC2)cc1"
reported = 8.00

[[record]]
smiles_data = "O=C(NO)c1ccc(NC(=O)C2(c3c[nH]c(-c4ccccc4)n3)CCCC2)cc1"
reported = 7.68

[[record]]
smiles_data = "O=C(O)c1cccc(-c2ccc(C3(C(=O)Nc4ccc(C(=O)NO)cc4)CCCC3)cc2)c1"
reported = 7.89

[[record]]
smiles_data = "O=C(NO)c1ccc(NC(=O)C2(c3ccc4ccccc4c3)CCOCC2)cc1"
reported = 8.10

[[record]]
smiles_data = "CN(C)c1ccc(C2(C(=O)Nc3ccc(C(=O)NO)cc3)CCCC2)cc1"
reported = 7.31


* * *

- Tgt: Histone deacetylase 1 (Homo sapiens)
- Test Method Notes: Inhibition of human recombinant HDAC1 pre-incubated for 30 mins before Ac-Leu- Gly-Lys(Ac)-AMC substrate addition and measured after 90 mins by fluorescence based assay
Measurement Type: IC50 (µM)

[[record]]
molecule = "O=C(NO)c1ccc(NC(=O)C2(c3c[nH]c(-c4ccc([N+](=O)[O-])cc4)n3)CCCC2)cc1"
reported = 0.006

[[record]]
molecule = "COc1ccc(C2(C(=O)Nc3ccc(C(=O)NO)cc3)CCCCC2)cc1-c1ccccc1NC(C)=O"
reported = 0.009

[[record]]
molecule = "O=C(NO)c1ccc(NC(=O)C2(c3c[nH]c4ccccc34)CCCC2)cc1"
reported = 0.023

[[record]]
molecule = "COc1ccc(C2(C(=O)Nc3ccc(C(=O)NO)cc3)CCCCC2)cc1OC"
reported = 0.029

[[record]]
molecule = "O=C(NO)c1ccc(NC(=O)C2(c3ccccc3)CC2)cc1"
reported = 0.093

[[record]]
molecule = "COc1cccc(-c2nc(C3(C(=O)Nc4ccc(C(=O)NO)cc4)CCCC3)cs2)c1"
reported = 0.015

[[record]]
molecule = "CC(C)C(C(=O)Nc1ccc(C(=O)NO)c(Cl)c1)c1ccccc1 (racemic)"
reported = 8.68

[[record]]
molecule = "C/C(=N\\O)c1sccc1-c1ccc(C2(C(=O)Nc3ccc(C(=O)NO)cc3)CCCC2)cc1"
reported = 0.043

[[record]]
molecule = "O=C(NO)c1ccc(NC(=O)C2(c3ccc4c(c3)OCO4)CCCCC2)cc1"
reported = 0.042

[[record]]
molecule = "Cc1n[nH]c(C)c1-c1ccc(C2(C(=O)Nc3ccc(C(=O)NO)cc3)CCCC2)cc1"
reported = 0.008

[[record]]
molecule = "O=C(O)c1cccc(-c2ccc(C3(C(=O)Nc4ccc(C(=O)NO)cc4)CCCC3)cc2)c1"
reported = 0.002

[[record]]
molecule = "O=C(NO)c1ccc(NC(=O)C2(c3ccc(-c4cc[nH]n4)cc3)CCCC2)cc1"
reported = 0.004

[[record]]
molecule = "O=C(NO)c1ccc(NC(=O)C2(c3ccc([N+](=O)[O-])cc3)CCOCC2)cc1"
reported = 0.009

[[record]]
molecule = "O=C(NO)c1ccc(NC(=O)C2(c3c[nH]c(-c4ccccc4)n3)CCCC2)cc1"
reported = 0.003

[[record]]
molecule = "O=C(NO)c1ccc(NC(=O)C2(c3ccc(-c4cn[nH]c4)cc3)CCOCC2)cc1"
reported = 0.002

[[record]]
molecule = "O=C(NO)c1ccc(NC(=O)C2(c3ccc(Cl)cc3)CCCC2)cc1"
reported = 0.012

